Entries and their Average Potency (IC50), inhibition of hIL-31-induced proliferation of BAF-3(hIL-31R) cells
study.target: recombinant human IL-31 (C108S), produced in E. coli by ZymoGenetics, MW 18 kDa (human), Q6EBC2
run.description: cell-based or functional assay
Entry rule: numbers only, all in nM.

q: What does the data say about its Average Potency (IC50), inhibition of hIL-31-induced proliferation of BAF-3(hIL-31R) cells? Entry: humanized 292.12.3.1 construct clone 25 (12VH1-gly + HC(F29L, R94F) + LC(F71Y)) (antibody, human IgG4, V domains shown) VH: QVQLVQSGAEVKKPGASVKVSCKASGYTLTRYWMQWVRQAPGQGLEWMGAIYPGDGDTRYSQKFQGRVTMTRDTSISTVYMELSSLRSEDTAVYYCAFPDGYYAAPYGMDYWGQGTLVTVSS VL: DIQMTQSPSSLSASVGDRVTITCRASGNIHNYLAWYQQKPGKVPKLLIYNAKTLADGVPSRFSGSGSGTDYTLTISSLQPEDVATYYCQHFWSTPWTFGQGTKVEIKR
a: 26.3

New cases:
q: Give its Average Potency (IC50), inhibition of hIL-31-induced proliferation of BAF-3(hIL-31R) cells value. Item: humanized 292.12.3.1 construct clone 16 (12VH1-gly + HC(fback) + LC(G66R, G68E, D70Q, T72S)) (antibody, human IgG4, V domains shown) VH: QVQLVQSGAEVKKPGASVKVSCKASGYTLTRYWMQWVRQAPGQGLEWMGAIYPGDGDTRYSQKFQGRVTLTADKSISTAYMELSSLRSEDTAVYYCAFPDGYYAAPYGMDYWGQGTLVTVSS VL: DIQMTQSPSSLSASVGDRVTITCRASGNIHNYLAWYQQKPGKVPKLLIYNAKTLADGVPSRFSGSRSETQFSLTISSLQPEDVATYYCQHFWSTPWTFGQGTKVEIKR
a: 10.6

q: So what does the record say about Average Potency (IC50), inhibition of hIL-31-induced proliferation of BAF-3(hIL-31R) cells for humanized 292.12.3.1 construct clone 29 (12VH1-gly + HC(F29L, T73K, R94F) + LC(F71Y)) (antibody, human IgG4, V domains shown) VH: QVQLVQSGAEVKKPGASVKVSCKASGYTLTRYWMQWVRQAPGQGLEWMGAIYPGDGDTRYSQKFQGRVTMTRDKSISTVYMELSSLRSEDTAVYYCAFPDGYYAAPYGMDYWGQGTLVTVSS VL: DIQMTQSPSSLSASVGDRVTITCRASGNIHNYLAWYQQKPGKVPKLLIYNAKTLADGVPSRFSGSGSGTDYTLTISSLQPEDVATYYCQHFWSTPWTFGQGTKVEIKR ?
a: 12.9
